Origin of values: the SangsterLogP compilation

Assay: method code SF-AS, from DOI: 10.1211/0022357001777513, PMID: 11186244
Conditions: pH 7.3
For each of the molecules below, state its logD.
Give bare numbers.

>>> number("OCC(O)COc1ccccc1-c1c2nc(c(-c3ccccc3OCC(O)CO)c3ccc([nH]3)c(-c3ccccc3OCC(O)CO)c3nc(c(-c4ccccc4OCC(O)CO)c4ccc1[nH]4)C=C3)C=C2 (stereo not given)")
4.67
>>> number("Oc1cccc(-c2c3nc(c(-c4cccc(O)c4F)c4ccc([nH]4)c(-c4cccc(O)c4F)c4nc(c(-c5cccc(O)c5F)c5ccc2[nH]5)C=C4)C=C3)c1F")
4.6
>>> number("OCC(O)COc1c(F)ccc(-c2c3nc(c(-c4ccc(F)c(OCC(O)CO)c4F)c4ccc([nH]4)c(-c4ccc(F)c(OCC(O)CO)c4F)c4nc(c(-c5ccc(F)c(OCC(O)CO)c5F)c5ccc2[nH]5)C=C4)C=C3)c1F (stereo not given)")
2.51

Hi, could you look up logD for each item in my list?
1. Oc1ccccc1-c1c2nc(c(-c3ccccc3O)c3ccc([nH]3)c(-c3ccccc3O)c3nc(c(-c4ccccc4O)c4ccc1[nH]4)C=C3)C=C2
2. OCC(O)COc1ccc(-c2c3nc(c(-c4ccc(OCC(O)CO)cc4)c4ccc([nH]4)c(-c4ccc(OCC(O)CO)cc4)c4nc(c(-c5ccc(OCC(O)CO)cc5)c5ccc2[nH]5)C=C4)C=C3)cc1 (stereo not given)

4.58
4.93
